- measuredTarget: HIF-2α (Homo sapiens)
- experimentDescription: HIF-2α Luciferase Reporter Assay (serum), HRE-luciferase 786-0 cells in 100% human serum
- Assay type: cell-based
- conditionsUsed: ratio of IC50 in 100% serum to IC50 in serum free conditions; approximate
observable: Serum Shift (approximate)

- O[C@H]1c2c(C(F)(F)F)nn([C@H]3CCC[C@@H](F)C3)c2CC1(F)F (racemic) [90 DIAST-1]: 6
- O=S(=O)(CCn1nc(C(F)(F)F)c2c1CCC(F)(F)[C@H]2O)C(F)(F)F: 4
- O[C@H]1c2c(C(F)(F)F)nn([C@@H]3CC[C@@H](F)[C@@H](F)C3)c2[C@@H](F)[C@H]1F (single isomer, unassigned) [141/142 DIAST-1]: 4
- O[C@H]1c2c(C(F)(F)F)nn([C@@H]3C[C@@H](F)[C@@H](F)[C@@H](F)C3)c2[C@H](F)C1(F)F (single isomer, unassigned) [146/147 DIAST-1]: 5

(a) O[C@H]1c2c(C(F)(F)F)nn(CCC3CC(F)(F)C3)c2CCC1(F)F
(b) CO[C@H]1C[C@H](n2nc(C(F)(F)F)c3c2CC(F)(F)[C@H]3O)CCC1(F)F (racemic)
(c) O[C@H]1c2c(C(F)(F)F)nn([C@H]3CC[C@H](F)[C@H](F)C3)c2[C@@H](F)C1(F)F
(d) O[C@H]1c2c(C(F)(F)F)nn([C@@H]3CCC[C@H](OC(F)F)C3)c2CC1(F)F (racemic)
Task field, ranking: reported Serum Shift (approximate), descending order. Show the ranking through the labels, in the order asked for.
d, b, a, c

---

- measuredTarget: HIF-2α (Homo sapiens, UniProt Q99814)
- Sequence (Q99814 whole entry): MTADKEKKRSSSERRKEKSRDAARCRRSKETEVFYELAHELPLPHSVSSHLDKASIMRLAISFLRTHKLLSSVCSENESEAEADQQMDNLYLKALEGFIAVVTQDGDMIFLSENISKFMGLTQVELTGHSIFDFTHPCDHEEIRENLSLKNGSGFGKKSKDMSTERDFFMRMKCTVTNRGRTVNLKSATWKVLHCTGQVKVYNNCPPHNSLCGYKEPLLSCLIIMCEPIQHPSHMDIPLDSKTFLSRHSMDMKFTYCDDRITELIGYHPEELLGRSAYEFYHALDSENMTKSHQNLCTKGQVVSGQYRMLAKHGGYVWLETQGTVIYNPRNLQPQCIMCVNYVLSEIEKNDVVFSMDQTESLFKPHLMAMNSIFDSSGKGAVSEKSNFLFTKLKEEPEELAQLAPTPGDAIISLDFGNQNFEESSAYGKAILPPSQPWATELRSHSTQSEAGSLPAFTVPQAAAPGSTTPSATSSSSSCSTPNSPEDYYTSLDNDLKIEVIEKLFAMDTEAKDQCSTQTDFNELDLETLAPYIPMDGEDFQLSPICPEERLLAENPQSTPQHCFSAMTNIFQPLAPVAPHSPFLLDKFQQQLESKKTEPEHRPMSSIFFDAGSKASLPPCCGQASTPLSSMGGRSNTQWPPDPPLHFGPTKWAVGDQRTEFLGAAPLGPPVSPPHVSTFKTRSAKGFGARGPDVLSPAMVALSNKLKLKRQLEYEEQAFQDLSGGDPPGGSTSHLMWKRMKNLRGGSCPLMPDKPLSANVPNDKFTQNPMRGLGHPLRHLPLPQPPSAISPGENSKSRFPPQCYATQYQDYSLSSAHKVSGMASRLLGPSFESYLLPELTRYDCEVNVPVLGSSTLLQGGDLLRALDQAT
- experimentDescription: HIF-2α Luciferase Reporter Assay (serum free) in HIF-Luc-786-0 cells
- Assay type: cell-based
- conditionsUsed: Opti-MEM, 786-0 reporter cells, 20 hours incubation
- Experimental: Generation of HIF-2α Luciferase 786-0 Cell Line: Stable cell lines were generated by transducing 786-0 cells (ATCC, CRL-1932) with Cignal Lenti HIF Luc Reporter lentivirus (CLS-007L, Qiagen) according to the manufacturer's guidelines. In brief, 0.3×10^6 786-0 cells were transduced with lentivirus at a multiplicity of infection (MOI) of 25 for 24 hours. […]
pIC50: −log10 of the molar value.
pIC50 for assorted compounds

The cases that follow already have their pIC50 on record.
* CO[C@H](CCn1nc(C(F)(F)F)c2c1[C@@H](F)[C@@H](F)[C@H]2O)C(F)(F)F | > 7.00
* O[C@H]1c2c(C(F)(F)F)nn([C@H]3CCO[C@@H](C(F)(F)F)C3)c2[C@@H](F)[C@H]1F (single isomer, unassigned) [150/151 DIAST-1] | 6.00 to 7.00
* O[C@H]1c2c(C(F)(F)F)nn([C@H]3C[C@@H](COC(F)F)C3)c2CC1(F)F | < 6.00
* O[C@H]1c2c(C(F)(F)F)nn([C@H]3CCC[C@H](C(F)(F)F)C3)c2CC1(F)F | 6.00 to 7.00

Tested system HIF-2α (Homo sapiens, UniProt Q99814); pIC50 recorded for `C[C@@H](C#N)CCn1nc(C(F)(F)F)c2c1CCC(F)(F)[C@H]2O` was > 7.00

Test item [O-][S+](CCn1nc(C(F)(F)F)c2c1CCC(F)(F)[C@H]2O)C(F)F (some centres unmarked) ; HIF-2α (Homo sapiens, UniProt Q99814); reported pIC50 was 6.00 to 7.00

Field pIC50 (system: HIF-2α (Homo sapiens, UniProt Q99814)) for entry `O[C@H]1c2c(C(F)(F)F)nn([C@H]3C[C@]4(CC4(F)F)C3)c2CC1(F)F` = 6.00 to 7.00

# `O[C@H]1c2c(C(F)(F)F)nn([C@H]3C[C@@]4(CC4(F)F)C3)c2CC1(F)F` with HIF-2α (Homo sapiens, UniProt Q99814): pIC50 is > 7.00

Item CO[C@H](CCn1nc(C(F)(F)F)c2c1[C@H](F)C(F)(F)[C@H]2O)C(F)(F)F (single isomer, unassigned) [148/149 DIAST-1] ; assay system HIF-2α (Homo sapiens, UniProt Q99814); pIC50 reported as > 7.00

The recorded pIC50 with HIF-2α (Homo sapiens, UniProt Q99814) for `O[C@H]1c2c(C(F)(F)F)nn(-c3ccc(Cl)cc3)c2CC1(F)F` was > 7.00

Record `O[C@H]1c2c(C(F)(F)F)nn([C@@H]3C[C@H](F)C[C@H](F)C3)c2CC1(F)F` / HIF-2α (Homo sapiens, UniProt Q99814), pIC50 recorded as > 7.00

Case `CC(F)(F)CCn1nc(C(F)(F)F)c2c1CCC(F)(F)[C@H]2O` , HIF-2α (Homo sapiens, UniProt Q99814), pIC50 recorded as > 7.00

Record CO[C@H]1C[C@H](n2nc(C(F)(F)F)c3c2CC(F)(F)[C@H]3O)CCC1(F)F (racemic) has HIF-2α (Homo sapiens, UniProt Q99814) pIC50 equal to > 7.00

Record for O[C@H]1c2c(C(F)(F)F)nn([C@@H]3CC[C@@H](F)[C@@H](F)C3)c2CC1(F)F (single isomer, unassigned) [72/73 DIAST-1] under target or system HIF-2α (Homo sapiens, UniProt Q99814): pIC50 reported as > 7.00

Lab entry: HIF-2α (Homo sapiens, UniProt Q99814) assay, compound `O[C@H]1c2c(C(F)(F)F)nn(C3CCCCC3)c2CCC1(F)F` , pIC50 = < 6.00

// assay HIF-2α (Homo sapiens, UniProt Q99814), entry `O=S1(=O)CC(Cn2nc(C(F)(F)F)c3c2CCC(F)(F)[C@H]3O)C1` , pIC50 value = 6.00 to 7.00

Result for `O[C@H]1c2c(C(F)(F)F)nn(CCSC(F)(F)F)c2CCC1(F)F` , tested on HIF-2α (Homo sapiens, UniProt Q99814), pIC50: > 7.00

---

- measuredTarget: Biotin tagged HIF-2α protein containing PAS-B domain (240-350) (Homo sapiens, UniProt Q99814)
- Sequence (Q99814 240-350): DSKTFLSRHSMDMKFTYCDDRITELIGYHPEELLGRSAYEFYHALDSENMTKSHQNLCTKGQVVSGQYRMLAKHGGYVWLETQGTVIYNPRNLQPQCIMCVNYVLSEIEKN
IC50 overview

IC50 in this record for `O[C@H]1c2c(C(F)(F)F)nn(C3CCC(F)(F)CC3)c2CCC1(F)F` : 100 to 1000 nM

Input `O[C@H]1c2c(C(F)(F)F)nn(CCOC(F)(F)F)c2CCC1(F)F` . Output IC50: > 1000 nM

---

Parameter: IC50. Scope: all listed entries.
- measuredTarget: HIF-2α (Homo sapiens)
- experimentDescription: HIF-2α Luciferase Reporter Assay (serum), HRE-luciferase 786-0 cells in 100% human serum
- Assay type: cell-based
- conditionsUsed: 100% human serum, 786-0 reporter cells, overnight incubation; read-out: Serum Potency

# example entries with known answers
• O[C@H]1c2c(C(F)(F)F)nn([C@@H]3CCCC(F)(F)C3)c2[C@@H](F)[C@H]1F (single isomer, unassigned) [136/137 DIAST-2] = 100 to 1000 nM
• O[C@H]1c2c(C(F)(F)F)nn([C@H]3C[C@H](F)C[C@H](F)C3)c2CC1(F)F [Example 71] = > 1000 nM
• O[C@H]1c2c(C(F)(F)F)nn([C@H]3CC[C@H](F)[C@H](F)C3)c2[C@@H](F)[C@H]1F (single isomer, unassigned) [141/142 DIAST-2] = 100 to 1000 nM
• O[C@H]1c2c(C(F)(F)F)nn([C@@H]3CC[C@@H](F)[C@@H](F)C3)c2[C@@H](F)C1(F)F [Example 156] = 100 to 1000 nM
• O[C@H]1c2c(C(F)(F)F)nn(C3CCC(F)(F)CC3)c2CC1(F)F [Example 53] = 100 to 1000 nM

Entry COC(C)CCn1nc(C(F)(F)F)c2c1CCC(F)(F)[C@H]2O (stereo partly drawn) [Example 13] — recorded IC50 = 100 to 1000 nM

Form: compound = O[C@@H]1c2c(C(F)(F)F)nn([C@H]3CC[C@H](F)[C@H](F)C3)c2[C@H](F)C1(F)F (single isomer, unassigned) [Example 154] ; IC50 = 100 to 1000 nM

The compound O[C@H]1c2c(C(F)(F)F)nn(CCc3ccsc3)c2CC1(F)F [Example 76] showed IC50 equal to > 1000 nM

Notebook: O[C@H]1c2c(C(F)(F)F)nn([C@H]3CC[C@@H](F)[C@@H](F)C3)c2CC1(F)F (racemic) [91 DIAST-2] , IC50 read as > 1000 nM

According to the records, this compound O[C@H]1c2c(C(F)(F)F)nn(-c3ccc(C(F)(F)F)cc3)c2CC1(F)F [Example 117] displays IC50 of > 1000 nM

CS(=O)(=O)CCn1nc(C(F)(F)F)c2c1CCC(F)(F)[C@H]2O [Example 42] has a reported IC50 of > 1000 nM

# IC50 of O[C@H]1c2c(C(F)(F)F)nn(CC3CC3(F)F)c2CCC1(F)F (single isomer, unassigned) [23/24 DIAST-2] = > 1000 nM
